# Tested on: STK33;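 also: KINOMEscan kinase panel screen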
# assay-conditions: concentration: 1 μM, replicates: in singlicate; n = 1
%Inh reference
# output: numeric value plus its unit

# example entries with known answers
# compound, experimental-endpoint, test-value
rows = [
    ("Cc1ccc(NC(=O)Nc2ccccc2)cc1-c1ccc(C(=O)Nc2ccncc2)cc1 [GSK1398471]", "%Inh", "0%"),
    ("O=c1cc(N2CCOCC2)nc2n(Cc3ccccc3F)ccn12 [GSK2297428]", "%Inh", "0%"),
    ("COc1cccc(NC(=O)Nc2ccc(C)c(-c3ccc(C(=O)Nc4ccncc4)cc3)c2)c1 [GSK1398474]", "%Inh", "0%"),
    ("COc1ccc(-c2coc3ccc(-c4nnc(C)o4)cc23)cc1", "%Inh", "0%"),
    ("Fc1ccc(-c2nc3n(c2-c2ccncc2)CCS3)cc1 [GI98581]", "%Inh", "1%"),
    ("Cn1cncc1C(=O)NC1CCN(c2ccnc(Nc3ccc(F)cc3)n2)C1 (stereo not drawn) [GSK1379717]", "%Inh", "0%"),
]

%Inh for NS(=O)(=O)c1cccc(N/C=C2\C(=O)Nc3ccc(S(=O)(=O)Cc4c(Cl)cccc4Cl)cc32)c1 [GSK398099] ?
0%

Do the same for O=C(Nc1n[nH]c2cc(-c3ccsc3)ccc12)C1CC1 [SB-732932] please
0%

Do the same for Nc1nccc(-c2c(-c3ccc(F)cc3)ncn2C2CCN(Cc3ccccc3)CC2)n1 [SB-219980] please
33%

Do the same for COC(=O)c1cccc(NC(=O)NC2CCN(c3ccnc(Nc4ccc(F)cc4)n3)C2)c1 (stereo not drawn) [GSK1379725] please
0%

Do the same for COC(=O)c1cccc(NC(=O)NC2CCN(c3ccnc(Nc4ccc(OC)cc4)n3)C2)c1 (stereo not drawn) [GSK1379746] please
0%

Do the same for CC(=O)c1cccc(NC(=O)NC2CCN(c3ccnc(Nc4ccc(F)cc4)n3)C2)c1 (stereo not drawn) [GSK1379710] please
6%

Do the same for `CNC(=O)c1ccc(C)c(-n2c(C)cc(OCc3ccc(F)cc3F)c(Br)c2=O)c1` please
0%

Do the same for Cc1ccc(NC(=O)Nc2ccccc2F)cc1-c1ccc(C(=O)Nc2ccncc2)cc1 [GSK1398477] please
8%

Do the same for `COc1ccc(CSc2nnc(-c3ccc4ncsc4c3)o2)cc1C(F)(F)F` please
0%

Do the same for O=C1NC(=O)C(c2ccc(Cl)cc2)=C1Nc1cccc(Cl)c1 [SB-317651] please
0%

Do the same for COc1ccc(Nc2nccc(N3CCC(NC(=O)C(C)c4ccc(Cl)cc4)C3)n2)cc1 (stereo not drawn) [GSK1379735] please
0%

Do the same for CS(=O)(=O)Cc1ccc(Nc2nccc(-c3c(-c4cccc(NC(=O)C5CCCCC5)c4)nn4ncccc34)n2)cc1 [GSK350559] please
4%
